Where do these numbers come from? They come from PubChem BioAssay AID1918939.

System: 653999-131-R-J2-PDC complex spheroid viability
Test: Anticancer human tumor 653999-131-R-J2-PDC patient-derived lung adenocarcinoma cell line growth inhibition
Settings: second compound 3.16 µM; first compound 0.0316 µM; stronger effect = lower value

{"columns": ["MOLECULE", "viability, T/C (%)"],
 "data": [
  ["CC1COCCN1c1cc(C2(S(C)(=N)=O)CC2)nc(-c2ccnc3[nH]ccc23)n1 (centres undefined) + NC1CC1c1ccc(-c2cccc(O)c2)cc1", 90.2],
  ["CC1COCCN1c1cc(-c2ccnn2C)c2ccnc(-c3ccn[nH]3)c2n1 (centres undefined) + NC1CCC(NC2CC2c2ccccc2)CC1", 44.8],
  ["CC(C)CC(NC(=O)C(Cc1ccccc1)NC(=O)c1cnccn1)B(O)O (centres undefined) + NC1CC1c1ccc(-c2cccc(O)c2)cc1", 1.41],
  ["COc1cc(Nc2ncc3c(n2)-c2ccc(Cl)cc2C(c2c(F)cccc2OC)=NC3)ccc1C(=O)O + NC1CC1c1ccc(-c2cccc(O)c2)cc1", 58]
]}

###

Measured viability, T/C, listed per entry for reference.
Tested on: 653999-131-R-J2-PDC complex spheroid viability
Test: Anticancer human tumor 653999-131-R-J2-PDC cell line growth inhibition;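 further: spheroids exposed to agents for seven days before readout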
Conditions: second compound 0.1 µM; first compound 0.0949 µM; stronger effect = lower value

{"columns": ["COMPOUND", "viability, T/C (%)"],
 "data": [
  ["Nc1ccccc1NC(=O)c1ccc(CNC(=O)OCc2cccnc2)cc1 + NC1CC1c1ccc(-c2cccc(O)c2)cc1", 81.5],
  ["CCN(c1cc(-c2ccc(CN3CCOCC3)cc2)cc(C(=O)NCc2c(C)cc(C)[nH]c2=O)c1C)C1CCOCC1 + NC1CCC(NC2CC2c2ccccc2)CC1", 98.2],
  ["O=C(C=Cc1cccc(S(=O)(=O)Nc2ccccc2)c1)NO + NC1CCC(NC2CC2c2ccccc2)CC1", 108],
  ["Nc1ncn(C2CC(O)C(CO)S2)c(=O)n1 (configuration not stated) + NC1CCC(NC2CC2c2ccccc2)CC1", 70.4],
  ["Nc1ccccc1NC(=O)c1ccc(CNC(=O)OCc2cccnc2)cc1 + NC1CCC(NC2CC2c2ccccc2)CC1", 57.1],
  ["NS(=O)(=O)OCC1CC(n2ccc3c(NC4CCc5ccccc54)ncnc32)CC1O (configuration not stated) + NC1CC1c1ccc(-c2cccc(O)c2)cc1", 107],
  ["CCc1c2c(nc3ccc(O)cc13)-c1cc3c(c(=O)n1C2)COC(=O)[C@]3(O)CC + NC1CCC(NC2CC2c2ccccc2)CC1", 5.01]
]}

###

Test system: 653999-131-R-J2-PDC complex spheroid viability
Test: Anticancer human tumor 653999-131-R-J2-PDC cell line growth inhibition;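 further: spheroids exposed to agents for seven days before readout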
Settings: second compound 10 µM; first compound 0.000949 µM; stronger effect = lower value
Mark TRUE only for viability, T/C values smaller than 80%; exact matches and larger values are FALSE.

{"columns": ["COMPOUND", "CLASS_NAME"],
 "data": [
  ["CCc1c2c(nc3ccc(O)cc13)-c1cc3c(c(=O)n1C2)COC(=O)[C@]3(O)CC + NC1CCC(NC2CC2c2ccccc2)CC1", "TRUE"],
  ["Nc1ccn(C2OC(CO)C(O)C2(F)F)c(=O)n1 (stereo unspecified) + NC1CCC(NC2CC2c2ccccc2)CC1", "TRUE"],
  ["CCc1c2c(nc3ccc(O)cc13)-c1cc3c(c(=O)n1C2)COC(=O)[C@]3(O)CC + NC1CC1c1ccc(-c2cccc(O)c2)cc1", "TRUE"],
  ["Nc1ncn(C2CC(O)C(CO)S2)c(=O)n1 (stereo unspecified) + NC1CC1c1ccc(-c2cccc(O)c2)cc1", "FALSE"],
  ["Nc1ccn(C2OC(CO)C(O)C2(F)F)c(=O)n1 (stereo unspecified) + NC1CC1c1ccc(-c2cccc(O)c2)cc1", "TRUE"],
  ["Nc1ncn(C2CC(O)C(CO)S2)c(=O)n1 (stereo unspecified) + NC1CCC(NC2CC2c2ccccc2)CC1", "FALSE"]
]}

###

Test system: 653999-131-R-J2-PDC complex spheroid viability
Assay: Anticancer human tumor 653999-131-R-J2-PDC cell line growth inhibition;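 further: spheroids exposed to agents for seven days before readout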
Details: second compound 10 µM; first compound 0.316 µM; stronger effect = lower value
PARAMETER: viability, T/C (%)

{"columns": ["MOLECULE", "PARAMETER", "REPORTED_VALUE"],
 "data": [
  ["CC1COCCN1c1cc(C2(S(C)(=N)=O)CC2)nc(-c2ccnc3[nH]ccc23)n1 (stereo not drawn) + NC1CC1c1ccc(-c2cccc(O)c2)cc1", "viability, T/C", 82.3],
  ["CC1(C)CCC(CN2CCN(c3ccc(C(=O)NS(=O)(=O)c4ccc(NCC5CCOCC5)c([N+](=O)[O-])c4)c(Oc4cnc5[nH]ccc5c4)c3)CC2)=C(c2ccc(Cl)cc2)C1 + NC1CC1c1ccc(-c2cccc(O)c2)cc1", "viability, T/C", 89.4],
  ["CC1COCCN1c1cc(C2(S(C)(=N)=O)CC2)nc(-c2ccnc3[nH]ccc23)n1 (stereo not drawn) + NC1CCC(NC2CC2c2ccccc2)CC1", "viability, T/C", 72.5]
]}

###

System: 653999-131-R-J2-PDC complex spheroid viability
Test: Anticancer human tumor 653999-131-R-J2-PDC cell line growth inhibition;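 further: spheroids exposed to agents for seven days before readout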
Conditions: second compound 1 µM; first compound 0.003 µM; stronger effect = lower value
Cut-off 60% on viability, T/C: below means fulfilled, at or above means not fulfilled.

{"columns": ["COMPOUND", "CLASS_NAME"],
 "data": [
  ["Nc1ncn(C2CC(O)C(CO)S2)c(=O)n1 (stereo unspecified) + NC1CC1c1ccc(-c2cccc(O)c2)cc1", "not fulfilled"],
  ["CCc1c2c(nc3ccc(O)cc13)-c1cc3c(c(=O)n1C2)COC(=O)[C@]3(O)CC + NC1CCC(NC2CC2c2ccccc2)CC1", "fulfilled"],
  ["Nc1ccn(C2OC(CO)C(O)C2(F)F)c(=O)n1 (stereo unspecified) + NC1CCC(NC2CC2c2ccccc2)CC1", "fulfilled"],
  ["CCc1c2c(nc3ccc(O)cc13)-c1cc3c(c(=O)n1C2)COC(=O)[C@]3(O)CC + NC1CC1c1ccc(-c2cccc(O)c2)cc1", "fulfilled"],
  ["Nc1ccn(C2OC(CO)C(O)C2(F)F)c(=O)n1 (stereo unspecified) + NC1CC1c1ccc(-c2cccc(O)c2)cc1", "not fulfilled"],
  ["Nc1ncn(C2CC(O)C(CO)S2)c(=O)n1 (stereo unspecified) + NC1CCC(NC2CC2c2ccccc2)CC1", "not fulfilled"]
]}

###

System: 653999-131-R-J2-PDC complex spheroid viability
Assay: Anticancer human tumor 653999-131-R-J2-PDC cell line growth inhibition;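 further: spheroids exposed to agents for seven days before readout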
Settings: second compound 1 µM; first compound 3 µM; stronger effect = lower value
viability, T/C under 30% gets Condition met, anything at or over 30% gets Condition not met.

{"columns": ["MOLECULE", "CLASS_NAME"],
 "data": [
  ["NS(=O)(=O)OCC1CC(n2ccc3c(NC4CCc5ccccc54)ncnc32)CC1O (configuration not stated) + NC1CCC(NC2CC2c2ccccc2)CC1", "Condition not met"],
  ["NS(=O)(=O)OCC1CC(n2ccc3c(NC4CCc5ccccc54)ncnc32)CC1O (configuration not stated) + NC1CC1c1ccc(-c2cccc(O)c2)cc1", "Condition not met"],
  ["Nc1ccccc1NC(=O)c1ccc(CNC(=O)OCc2cccnc2)cc1 + NC1CC1c1ccc(-c2cccc(O)c2)cc1", "Condition met"],
  ["CCN(c1cc(-c2ccc(CN3CCOCC3)cc2)cc(C(=O)NCc2c(C)cc(C)[nH]c2=O)c1C)C1CCOCC1 + NC1CCC(NC2CC2c2ccccc2)CC1", "Condition not met"],
  ["COc1cc(C2c3cc4c(cc3C(OC3OC5COC(C)OC5C(O)C3O)C3COC(=O)C23)OCO4)cc(OC)c1O (configuration not stated) + NC1CC1c1ccc(-c2cccc(O)c2)cc1", "Condition met"],
  ["O=C(C=Cc1cccc(S(=O)(=O)Nc2ccccc2)c1)NO + NC1CCC(NC2CC2c2ccccc2)CC1", "Condition met"],
  ["COc1cc(C2c3cc4c(cc3C(OC3OC5COC(C)OC5C(O)C3O)C3COC(=O)C23)OCO4)cc(OC)c1O (configuration not stated) + NC1CCC(NC2CC2c2ccccc2)CC1", "Condition met"]
]}

###

Tested on: 653999-131-R-J2-PDC complex spheroid viability
Test: Anticancer human tumor 653999-131-R-J2-PDC cell line growth inhibition;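 further: spheroids exposed to agents for seven days before readout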
Conditions: second compound 10 µM; first compound 3 µM; stronger effect = lower value
PARAMETER: viability, T/C (%)

{"columns": ["COMPOUND", "PARAMETER", "UNITS_TEXT", "REPORTED_VALUE"],
 "data": [
  ["CCN(c1cc(-c2ccc(CN3CCOCC3)cc2)cc(C(=O)NCc2c(C)cc(C)[nH]c2=O)c1C)C1CCOCC1 + NC1CC1c1ccc(-c2cccc(O)c2)cc1", "viability, T/C", "%", 86.7],
  ["O=C(C=Cc1cccc(S(=O)(=O)Nc2ccccc2)c1)NO + NC1CC1c1ccc(-c2cccc(O)c2)cc1", "viability, T/C", "%", 82.4],
  ["COc1cc(C2c3cc4c(cc3C(OC3OC5COC(C)OC5C(O)C3O)C3COC(=O)C23)OCO4)cc(OC)c1O (stereo not drawn) + NC1CCC(NC2CC2c2ccccc2)CC1", "viability, T/C", "%", 31.3]
]}
